Sourced from paper PMC12155096

Molecular target: UniProtKB P05177
Sequence (P05177 whole entry): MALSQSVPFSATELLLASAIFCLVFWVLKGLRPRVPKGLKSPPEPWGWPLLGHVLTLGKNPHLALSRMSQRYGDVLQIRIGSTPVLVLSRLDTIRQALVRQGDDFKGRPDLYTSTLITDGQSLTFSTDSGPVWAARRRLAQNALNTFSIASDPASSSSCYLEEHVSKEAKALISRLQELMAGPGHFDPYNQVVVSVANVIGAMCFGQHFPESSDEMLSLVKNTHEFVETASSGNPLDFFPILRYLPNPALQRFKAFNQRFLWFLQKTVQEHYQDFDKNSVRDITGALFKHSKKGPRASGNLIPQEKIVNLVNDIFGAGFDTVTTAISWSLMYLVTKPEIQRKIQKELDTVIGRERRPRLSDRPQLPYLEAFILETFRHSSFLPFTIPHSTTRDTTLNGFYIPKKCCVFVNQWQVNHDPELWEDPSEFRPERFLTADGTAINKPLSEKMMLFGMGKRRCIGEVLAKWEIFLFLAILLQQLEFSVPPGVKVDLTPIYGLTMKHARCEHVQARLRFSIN
Assay: biochemical
Details: CYP1A2 IC50 (half-maximal inhibitory concentration)
Structures can show the parent of a compound that is named as a salt.
# note: boundary value 20 µM maps to NOT MET; IC50 below it maps to MET

Example entries begin here.
INSERT INTO assay_data (compound, label_class) VALUES
  ('CC(=O)SCC(Cc1ccccc1)C(=O)NCC(=O)OCc1ccccc1 (stereo not drawn) [Racecadotril]', 'MET'),
  ('O=S(=O)(c1ccc(Cl)cc1)c1ccc(Cl)cc1 [4,4''-Dichlorodiphenyl sulfone]', 'NOT MET'),
  ('CC(C1CC1)C(O)(Cn1cncn1)c1ccc(Cl)cc1 (stereo not drawn) [Cyproconazole]', 'NOT MET'),
  ('CCOCn1c(-c2ccc(Cl)cc2)c(C#N)c(Br)c1C(F)(F)F [Chlorfenapyr]', 'MET'),
  ('CCOc1cc(N)c(Cl)cc1C(=O)NCC1CN(Cc2ccc(F)cc2)CCO1 (stereo not drawn) [Mosapride citrate]', 'MET'),
  ('COc1ccc(C(c2ccc(OC)cc2)C(Cl)(Cl)Cl)cc1 [Methoxychlor]', 'MET'),
  ('COc1ccc(-c2ccccc2)cc1NNC(=O)OC(C)C [Bifenazate]', 'MET'),
  ('Clc1ccc(CCC(Cn2ccnc2)Sc2c(Cl)cccc2Cl)cc1 (stereo not drawn) [Butoconazole nitrate]', 'MET');

# TODO verify IC50 < 20 µM strictly for this compound: COP(=S)(Oc1cc(Cl)c(Br)cc1Cl)c1ccccc1 (stereo not drawn) [Leptophos]
NOT MET
